Reference source for all entries: paper PMC5681660

target: UniProtKB Q14973; test: Screening taurocholate uptake assay (96-well, [14C]taurocholate, 10 µM drug); details: screen, 10 µM drug, taurocholate uptake
Sequence (Q14973 whole entry): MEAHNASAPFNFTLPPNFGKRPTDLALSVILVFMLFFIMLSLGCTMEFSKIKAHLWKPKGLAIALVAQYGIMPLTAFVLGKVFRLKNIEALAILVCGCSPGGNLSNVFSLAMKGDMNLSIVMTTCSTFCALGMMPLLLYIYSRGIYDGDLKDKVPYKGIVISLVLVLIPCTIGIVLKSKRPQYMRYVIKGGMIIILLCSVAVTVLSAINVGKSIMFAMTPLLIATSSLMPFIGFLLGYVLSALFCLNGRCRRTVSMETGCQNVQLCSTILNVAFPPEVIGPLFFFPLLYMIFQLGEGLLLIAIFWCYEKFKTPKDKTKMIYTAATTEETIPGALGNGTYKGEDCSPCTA
Where a name gives a salt, the structure may show the parent alone.
READOUT TYPE: B-score functional assay
Give bare numbers.

Use these answered entries as a reference point.
# COMPOUND, READOUT TYPE, READOUT VALUE
measured = [
    ("C[C@]12CC[C@H](O)C[C@H]1CC[C@@H]1[C@@H]2CC[C@]2(C)[C@@H](C3=CC(=O)OC3)CC[C@]12O [Digitoxigenin]", "B-score functional assay", -2.282),
    ("OCCOCCN1CCN(C(c2ccccc2)c2ccc(Cl)cc2)CC1 (stereo not drawn) [Hydroxyzine dihydrochloride]", "B-score functional assay", 1.371),
]

Shifting focus to the compound that follows.
Ask | Which B-score functional assay value is on record for CC(=O)OCC(=O)[C@@]1(OC(C)=O)[C@@H](C)C[C@H]2[C@@H]3C[C@H](F)C4=CC(=O)C=C[C@]4(C)[C@@]3(F)[C@@H](O)C[C@@]21C [Diflorasone Diacetate] ?
Reply | -0.194
